Would you mind telling me the reported pEC50 of each entry?
Tested on: HCV 1b_Huh-Luc/Neo-ET cell line persistently expressing a bicistronic genotype 1b replicon in Huh 7 cells
Test: HCV replicon assay (luciferase readout, 72 h)
Assay type: cell-based, HCV genotype 1b
Conditions: Hepatitis C virus, Huh-7, 72 h, read-out: Inhibition of HCV genotype 1b
pEC50: −log10 of the molar value.

Entry under test: CN1CCN(C(=O)N[C@@H](C(=O)N2CCC[C@H]2c2ncc(-c3ccc(C#Cc4ccc(-c5cnc([C@@H]6CCCN6C(=O)[C@H](NC(=O)N6CCN(C)CC6)c6ccccc6)[nH]5)cc4)cc3)[nH]2)c2ccccc2)CC1 . Its pEC50 was > 9.00

Entry under test: COC(=O)N[C@H](C(=O)N1CCC[C@H]1c1ncc(C#Cc2ccc(-c3ccc4nc([C@@H]5CCCN5C(=O)[C@H](NC(=O)OC)c5ccccc5)[nH]c4c3)nc2)[nH]1)C(C)C . Its pEC50 was > 9.00

Entry under test: COC(=O)N[C@H](C(=O)N1CCC[C@H]1c1ncc(-c2ccc(C#Cc3ccc(-c4cnc([C@@H]5CCCN5C(=O)[C@@H](NC(=O)OC)[C@@H](C)OC)[nH]4)cc3)cc2)[nH]1)[C@@H](C)OC . Its pEC50 was > 9.00

Entry under test: O=S(=O)(c1ccccc1)N1CCC[C@H]1c1ncc(-c2ccc(C#Cc3ccc4nc([C@@H]5CCCN5S(=O)(=O)c5ccccc5)[nH]c4c3)cc2)[nH]1 . Its pEC50 was < 6.00

Entry under test: COC(=O)N[C@@H](Cc1cnc[nH]1)C(=O)N1CCC[C@H]1c1ncc(-c2ccc(C#Cc3ccc4nc([C@@H]5CCCN5C(=O)[C@H](Cc5cnc[nH]5)NC(=O)OC)[nH]c4c3)cc2)[nH]1 . Its pEC50 was 8.00 to 9.00

* * *

Tested on: HCV 1b_Huh-Luc/Neo-ET cell line persistently expressing a bicistronic genotype 1b replicon in Huh 7 cells
Test: HCV replicon assay (luciferase readout, 72 h)
Type: cell-based, HCV genotype 1b
Conditions: Hepatitis C virus, Huh-7, 72 h, read-out: Inhibition of HCV genotype 1b
pEC50: −log10 of the molar value.
readout.type: pEC50

Entry under test: CC(=O)N[C@@H](C(=O)N1CCC[C@H]1c1ncc(-c2ccc(C#Cc3ccc(-c4cnc([C@@H]5CCCN5C(=O)[C@H](NC(C)=O)c5ccccc5)[nH]4)cc3)cc2)[nH]1)c1ccccc1 . Its pEC50 was > 9.00

Entry under test: COC(=O)N[C@H](C(=O)N1CCC[C@H]1c1nc2ccc3cc(C#Cc4ccc(-c5cnc([C@@H]6CCCN6C(=O)[C@@H](NC(=O)OC)C6CCOCC6)[nH]5)cc4F)ccc3c2[nH]1)C(C)C . Its pEC50 was > 9.00

Entry under test: C[C@H](NC(=O)[C@H](NC(=O)OC(C)(C)C)c1ccccc1)c1ncc(-c2ccc(C#Cc3ccc(-c4cnc([C@@H]5CCCN5C(=O)[C@H](NC(=O)OC(C)(C)C)c5ccccc5)[nH]4)cc3)cc2)[nH]1 . Its pEC50 was > 9.00

Entry under test: COC(=O)N[C@H](C(=O)N1CCC[C@H]1c1nc2c([nH]1)-c1ccc(C#Cc3ccc4nc([C@@H]5CCCN5C(=O)[C@@H](NC(=O)OC)C(C)C)[nH]c4c3)cc1CC2)C(C)C . Its pEC50 was > 9.00

Entry under test: COC(=O)N[C@H](C(=O)N1CCC[C@H]1c1nc2ccc3cc(C#Cc4ccc(-c5cnc([C@@H]6CCCN6C(=O)[C@H](NC(=O)OC)c6ccccc6)[nH]5)cc4F)ccc3c2[nH]1)C(C)C . Its pEC50 was > 9.00

Entry under test: COC(=O)N[C@@H](C(=O)N1CCC[C@H]1c1ncc(-c2ccc(C#Cc3ccc(-c4cnc([C@@H]5CCCN5C(=O)[C@H](NC(=O)C5CCCN5C)c5ccccc5)[nH]4)cc3)cc2)[nH]1)c1ccccc1 (stereo partly drawn) . Its pEC50 was > 9.00

Entry under test: CC(C)(C)OC(=O)NC(C)(C)C(=O)N1CCC[C@H]1c1ncc(C#Cc2ccc(-c3cnc([C@@H]4CCCN4C(=O)C(C)(C)NC(=O)OC(C)(C)C)[nH]3)cc2)[nH]1 . Its pEC50 was < 6.00

Entry under test: CC(C)[C@H](NC(=O)N1CCNCC1)C(=O)N1CCC[C@H]1c1ncc(-c2ccc(C#Cc3ccc(-c4cnc([C@@H]5CCCN5C(=O)[C@@H](NC(=O)N5CCNCC5)C(C)C)[nH]4)cc3)cc2)[nH]1 . Its pEC50 was 6.00 to 8.00

Entry under test: COC(=O)N[C@@H](Cc1ccccc1)C(=O)N1CCC[C@H]1c1ncc(-c2ccc(C#Cc3ccc4nc([C@@H]5CCCN5C(=O)[C@H](Cc5ccccc5)NC(=O)OC)[nH]c4c3)cc2)[nH]1 . Its pEC50 was > 9.00

Entry under test: COC(=O)N[C@H](C(=O)N1CCC[C@H]1c1ncc(-c2ccc(C#Cc3ccc(-c4cnc([C@@H]5CCCN5C(=O)[C@H](C(C)C)N(C)C)[nH]4)cc3)cc2)[nH]1)C(C)C . Its pEC50 was 8.00 to 9.00

Entry under test: COC(=O)N[C@@H](C(=O)N1CCC[C@H]1c1ncc(C#Cc2ccc(-c3ccc(-c4cnc([C@@H]5CCCN5C(=O)[C@H](NC(=O)OC(C)(C)C)c5ccccc5)[nH]4)cc3)cc2)[nH]1)c1ccccc1 . Its pEC50 was > 9.00

Entry under test: COC(=O)N[C@H](C(=O)N1CCC[C@H]1c1nc2c([nH]1)-c1ccc(C#Cc3ccc4nc([C@@H]5CCCN5C(=O)[C@H](NC(=O)OC)c5ccccc5)[nH]c4c3)cc1CC2)C(C)C . Its pEC50 was > 9.00

Entry under test: COC(=O)N[C@@H](C(=O)N1CCC[C@H]1c1ncc(-c2ccc(C#Cc3ccc(-c4cnc([C@@H]5CCCN5C(=O)[C@H]5CCCN5C)[nH]4)cc3)cc2)[nH]1)c1ccccc1 . Its pEC50 was > 9.00

Entry under test: COC(=O)N[C@@H](C(=O)N1CCC[C@H]1c1ncc(-c2ccc(C#Cc3ccc(-c4cnc([C@@H]5CCCN5C(=O)[C@H](NC(=O)C5(O)CC5)c5ccccc5)[nH]4)cc3)cc2)[nH]1)c1ccccc1 . Its pEC50 was > 9.00

Entry under test: COC(=O)N[C@H](C(=O)N1CCC[C@H]1c1ncc(-c2ccc(C#Cc3ccc4nc([C@@H]5CCCN5C(=O)[C@@H](NC(=O)OC)[C@@H](C)OC)[nH]c4c3)cc2)[nH]1)[C@@H](C)OC . Its pEC50 was > 9.00

Entry under test: CC(C)(C)OC(=O)N[C@@H](C(=O)N1CCC[C@H]1c1ncc(-c2ccc(C#Cc3ccc(-c4cnc([C@@H]5CCCN5C(=O)[C@H](NC(=O)OC(C)(C)C)c5ccccc5)[nH]4)cc3)cc2)[nH]1)c1ccccc1 . Its pEC50 was > 9.00

Entry under test: COC(=O)N[C@@H](C(=O)N1CCC[C@H]1c1ncc(C#Cc2ccc(-c3ccc(-c4cnc([C@@H]5CCCN5C(=O)[C@H](NC(=O)OC)c5ccccc5)[nH]4)cc3)cc2)[nH]1)c1ccccc1 . Its pEC50 was > 9.00

Entry under test: COC[C@H](NC(=O)OC)C(=O)N1CCC[C@H]1c1ncc(-c2ccc(C#Cc3ccc(-c4cnc([C@@H]5CCCN5C(=O)[C@H](COC)NC(=O)OC)[nH]4)cc3)cc2)[nH]1 . Its pEC50 was > 9.00
